- assay-notes: Cmax in patient with acute myeloid leukemia infected with Candida albicans FP633 at 1.1 mg/kg administered once daily after 15 days by HPLC
- Type: ADME, organism-based
- Design: dose 1.1 mg/kg
- condition-details: human, in vivo
*1 amine or outer side, *2 acyl side, *3 side chain or, on linkers, in order; H or OH if unused. Where a SMILES comes first, the peptide text is derived from it. Bridges are numbered along the chain shown (N, C = ends). [ ]: non-standard residue; d: D form. The star is where a group is joined. hTyr(3S-OH,4S-OH,3'-OSO3H) = N[C@H](C(=O)O)[C@H](O)[C@@H](O)c1ccc(O)c(OS(=O)(=O)O)c1; Orn(4R-OH,5R-OH) = O=C([C@H](C[C@@H](O)[C@@H](O)N[*:3])N[*:1])[*:2]; Pro(3S-OH,4S-Me) = C[C@H]1CN[C@H](C(=O)O)[C@H]1O; X1 = CCCCCOc1ccc(-c2cc(-c3ccc(C(=O)*)cc3)no2)cc1; Gln(3R-OH) = NC(=O)C[C@@H](O)[C@H](N)C(=O)O; Hyp = O=C(O)[C@@H]1C[C@@H](O)CN1
outcome-measure: Cmax (ng/mL)
# value in ng/mL; strip the unit string

[in] Value lookup for Cmax; key = CCCCCOc1ccc(-c2cc(-c3ccc(C(=O)N[C@H]4C[C@@H](O)[C@@H](O)NC(=O)[C@@H]5[C@@H](O)[C@@H](C)CN5C(=O)[C@H]([C@H](O)CC(N)=O)NC(=O)[C@H]([C@H](O)[C@@H](O)c5ccc(O)c(OS(=O)(=O)O)c5)NC(=O)[C@@H]5C[C@@H](O)CN5C(=O)[C@H]([C@@H](C)O)NC4=O)cc3)no2)cc1 [MICAFUNGIN] (X1-[Orn(4R-OH,5R-OH)]T[Hyp][hTyr(3S-OH,4S-OH,3'-OSO3H)][Gln(3R-OH)][Pro(3S-OH,4S-Me)]; lactam 1-C)
[out] 5600
